B1: Osa-1-4 twister ribozyme (parent)
chain: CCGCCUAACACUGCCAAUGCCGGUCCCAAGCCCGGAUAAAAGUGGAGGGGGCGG

- Variants of: B1
- Protocol text: self-cleavage, relative activity (ratio to wild type); higher = more cleavage; co-transcriptional
Measured metric: self-cleavage
Give your answer as a number; write no unit.

Check out these entries, answers already filled in.
Mutation string	Result value
C32G C52U	0.2
C32A G23U	0.48
A39C C21U	0.97
A40C C31U	0.06
C20U C32U	0.15

The value of self-cleavage measured for the variant C32U U37C turned out to be 0.16

The value of self-cleavage measured for the variant A8U G22C turned out to be 0.03

The value of self-cleavage measured for the variant C26G U37A turned out to be 0.09

The value of self-cleavage measured for the variant C26A U37A turned out to be 0.05

The value of self-cleavage measured for the variant A28G G54U turned out to be 0.27

The value of self-cleavage measured for the variant A36U U43C turned out to be 0.38
